# Test system: Saccharomyces cerevisiae;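 also: PSI derived as read-weighted mean over the 8 sorting bins, only variants exceeding 10 total reads kept, mCherry placed adjacent to the peptide and sfGFP distal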
# ASSAY NOTES: protein stability index of tFT-peptide fusion in wild type (PSI (0-1 scale)); higher = more stable (slower turnover)
# DETAILS: genetic background: wild type
Assign satisfied whenever protein stability index does not fall below 0.2; assign not satisfied whenever it does.

{"CHAIN": "LVVYLSTVACIN", "LABEL VALUE": "not satisfied"}

Entry KKKKKGQKQKIN : is its protein stability index no less than 0.2?
not satisfied

Please indicate if the recorded protein stability index for CTGCGYKFRTNN meets or exceeds 0.2.
satisfied

Is the recorded value of protein stability index equal to or greater than 0.2 for this sequence? LKILIQKMNHQN
satisfied

Would you say LVVYPSCVACIN shows protein stability index at minimum 0.2?
satisfied
